Test: Cmax in Sprague-Dawley rat at 1 to 10 mg/kg, po bid treated for 7 days
Format: ADME, organism-based
Settings: in vivo, dose 1-10 mg/kg, time 7 day
Experimental readout: Cmax (ng/mL)
Supply the numeric figure in ng/mL, leaving out any unit text.

Q: Name the reported Cmax value associated with the compound `CC1(C)CNc2cc(NC(=O)c3cccnc3NCc3ccncc3)ccc21`
Ans: 230

Reference for the values: ChEMBL document CHEMBL5647680
